Target: Torsin-1A-interacting protein 2 (Homo sapiens) (UniProt Q8NFQ8)
Sequence (Q8NFQ8 whole entry, looked up): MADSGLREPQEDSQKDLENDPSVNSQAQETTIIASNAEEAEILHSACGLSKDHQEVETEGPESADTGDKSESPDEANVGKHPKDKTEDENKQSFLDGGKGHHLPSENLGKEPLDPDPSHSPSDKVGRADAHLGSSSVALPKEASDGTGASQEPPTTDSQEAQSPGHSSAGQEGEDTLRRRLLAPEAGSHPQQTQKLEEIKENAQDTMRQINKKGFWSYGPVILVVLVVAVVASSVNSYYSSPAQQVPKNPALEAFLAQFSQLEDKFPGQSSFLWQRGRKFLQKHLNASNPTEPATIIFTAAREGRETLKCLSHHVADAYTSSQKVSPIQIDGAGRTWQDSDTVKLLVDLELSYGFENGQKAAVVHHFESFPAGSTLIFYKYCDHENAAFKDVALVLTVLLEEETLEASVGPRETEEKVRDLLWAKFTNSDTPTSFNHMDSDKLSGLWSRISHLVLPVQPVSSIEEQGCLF
Assay: small molecules binding lysate-expressed LULL1 – cell lysate, human LULL1 lysate, 635/667 nm fluorescence, primary screen (AID 1092);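 also: probe is lysate of COS7 cells overexpressing human LULL1; score merges per-feature 667 nm fluorescence with signal-to-noise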
Details: small-molecule microarray, hLULL1 lysate binding, 635 nm fluorescence; higher = more signal
PROPERTY: composite z-score

[[record]]
molecule = "COc1ccccc1CN1C(=O)c2ccccc2[C@@]2(Cc3ccccc3N(CCCN(C)C)C2=O)[C@@H]1c1ccc(CO)cc1"
readout_number = 0.425

[[record]]
molecule = "COc1ccc(C(O)C2C=CC3C(=O)N(C)C(=O)C3N2N(c2ccccc2)c2ccccc2)c2ccccc12 (stereo not given)"
readout_number = -0.124

[[record]]
molecule = "CN(C)CCCC[C@@H]1NC(=O)[C@H]2C[C@@H](C(=O)NCCCCCN)[C@@H](c3cccc(OCCO)c3)N2C1=O"
readout_number = 2.26

[[record]]
molecule = "CCCCN1CC=CC23O[C@@H]4C=CCOC(=O)[C@@H]4[C@H]2C(=O)N(CCCCCCO)[C@@H]3C1=O (stereo not given in full)"
readout_number = 1.57

[[record]]
molecule = "COCCOC(=O)N1C(=O)[C@@]2(c3cc(C#CC4(O)CCCCCC4)ccc31)[C@H](c1ccccc1OCCO)N1[C@H](c3ccccc3)[C@H](c3ccccc3)OC(=O)[C@H]1[C@@H]2C(=O)N1CCc2cc(OC)c(OC)cc2C1"
readout_number = 2.96

[[record]]
molecule = "C=C(CCCC)/C(=C/C[C@H](OC(=O)c1ccncc1)c1ccc(OCCO)cc1)c1cc(C(=O)OC)ccc1OC"
readout_number = 1.27

[[record]]
molecule = "CCCCN1CC=CC23O[C@@H]4/C=C\\CCCOC(=O)C4[C@H]2C(=O)N(CCCO)[C@@H]3C1=O (stereo not given in full)"
readout_number = 2.86

[[record]]
molecule = "COc1cc2c(cc1O)C(c1cccs1)N(Cc1ccc([N+](=O)[O-])o1)CC2 (stereo not given)"
readout_number = 1.02

[[record]]
molecule = "CC(C)OC(=O)C=C1C[C@@H](c2cccc(Cl)c2)O[C@@H](c2cccc(Cl)c2)O1"
readout_number = 1.99

[[record]]
molecule = "COC(=O)[C@@]1(Cc2ccc(OC)cc2)[C@H]2c3cc(C(=O)N4CCCC4)n(CCCNc4ncc(C(F)(F)F)cc4Cl)c3C[C@H]2CN1C(=O)c1ccccc1"
readout_number = 1.8

[[record]]
molecule = "O[C@@H](Cc1ccccc1)[C@@H](/C=C/C1CC1)NCc1cccc(Cl)c1"
readout_number = -0.44

[[record]]
molecule = "CCC(CC)C(O)C1C=CC2C(=O)N(c3ccccc3)C(=O)C2N1Nc1ccccc1 (stereo not given)"
readout_number = 3.53

[[record]]
molecule = "COC(=O)[C@@]1(Cc2ccccc2)[C@H]2c3cc(C(=O)N(C)C)n(Cc4ccc(OC)c(OC)c4)c3C[C@H]2CN1C(=O)c1ccccc1"
readout_number = 3.53

[[record]]
molecule = "NCCCCCNC(=O)[C@H]1C[C@H]2C(=O)N3CCC[C@H]3C(=O)N2[C@H]1c1ccc(O)cc1"
readout_number = 2.58

[[record]]
molecule = "CN(C)CCCCCCNC(=O)[C@@H]1C[C@@H]2C(=O)N[C@@H](CCCC[N+](C)(C)C)C(=O)N2[C@@H]1c1ccc(O)cc1"
readout_number = 0.219

